- Tested on: 3T3 Mouse fibroblast cells
- assay.info: MTS cytotoxicity assay
- Assay type: cell-based
- condition.details: cytotoxicity, 3T3 mouse fibroblast cells
readout.kind: EC50 (µM)

structure.string	readout.kind	data.value
CCn1cc(-c2ccnc3[nH]c(-c4cccc(CN(C)C)c4)cc23)c(-c2ccc(NC(=O)N(C)C)cc2)n1	EC50	5.97
COc1cc2c(Nc3ccc(NC(=O)c4ccccc4)cc3)ncnc2cc1OCCCN1CCOCC1	EC50	3.78

====

- Test system: chloroquine-resistant P. falciparum Dd2
- assay.info: SYBR Green I-based fluorescence assay, intraerythrocytic growth inhibition
- Format: cell-based, Plasmodium falciparum
- condition.details: P. falciparum Dd2, 72 h
pIC50: −log10 of the molar value.
readout.kind: pIC50

structure.string	data.value
COc1cc2c(Nc3ccc(NC(=O)c4ccccc4)cc3)ncnc2cc1OCCCN1CCOCC1	5.99
